Reported pIC50 by item:
- Tested on: A2780
- protocolText: Cytotoxicity against human A2780 cells assessed as growth inhibition after 72 hrs by MTT assay
- Assay type: functional, cell-based
- experimentalContext: A2780, 72 h
Bear in mind: pIC50 is minus log10 of a mol/L concentration; give just that figure.

See these solved cases before continuing.
smilesEntry: O=C1/C(=C\c2ccccc2)c2c(ncn2COCc2ccccc2)CCN1Cc1ccc(Cl)cc1
system: A2780
pIC50: 4.65
--
smilesEntry: Cc1ccc(CN2CCc3ncn(COCc4ccccc4)c3/C(=C/c3ccccc3)C2=O)cc1
system: A2780
pIC50: 4.67
--
smilesEntry: Cc1ccccc1CN1CCc2ncn(COCc3ccccc3)c2/C(=C/c2ccccc2)C1=O
system: A2780
pIC50: 4.60
--
smilesEntry: CNc1nc2ccn(C)c(=O)c(Cc3cc(Br)c(OC)c(Br)c3)c-2n1
system: A2780
pIC50: 4.95
--
smilesEntry: Cc1cc(C)cc(CN2CCc3ncn(COCc4ccccc4)c3/C(=C/c3ccccc3)C2=O)c1
system: A2780
pIC50: 4.50

Input: Field: pIC50 (A2780). Entry: "CC(C)(C)c1ccc(CN2CCc3ncn(COCc4ccccc4)c3/C(=C/c3ccccc3)C2=O)cc1"
Output: 4.62

Input: How about this compound: "COc1cc(/C=C2\C(=O)N(Cc3ccccc3)CCc3ncn(COCc4ccccc4)c32)cc(OC)c1OC"
Output: 5.05

Input: Same again, this time with "O=C1/C(=C\c2ccccc2)c2c(ncn2COCc2ccccc2)CCN1Cc1ccc(F)cc1"
Output: 4.61

meta.source: ChEMBL document CHEMBL4184278
